- Tested on: SNB-75 CNS
- Assay Name: NCI-60 one-dose screen, 48 h
- Applied Conditions: 10 µM unless noted
This is part of a sample that, as a whole, favours compounds with a hit. Of some 83,000 tested, about 20% had one in any assay. The source made the active and inactive calls. The calls were made as follows: active = growth percent below 10; inactive = the rest.
# output must be one of active, inactive

{"Compound": "Cc1oc2nc[nH]c(=O)c2c1C(=O)/C=C/c1ccc(Cl)cc1", "Cat": "active"}
{"Compound": "Clc1nc(-c2cccnc2)nc2sc3c(c12)CCCCCC3", "Cat": "inactive"}
{"Compound": "Nc1nc(Cl)c2c(ncn2Cc2ccc(CCl)cc2)n1", "Cat": "inactive"}

Could you check what this test reported for `COc1ccc(N=C2NN=C(c3ccc(F)cc3)CS2)cc1OC` ?
inactive

Could you check what this test reported for `COc1ccc(NC(=O)c2cc3ccccc3nc2Nc2cc(OC)c(OC)c(OC)c2)cc1` ?
inactive

---

- Test system: SR leukemia
- Assay Name: NCI-60 one-dose screen, 48 h (100 = growth as untreated, 0 = no growth, -100 = all killed)
- Applied Conditions: 10 µM unless noted
Compounds without any hit were thinned out: in the full panel of roughly 83,000, 20% have a hit.
Measurement Label: growth (%)
Numbers only, in %.

{"Molecule": "CCNC(=O)C1CCCN1C(=O)C(CCCN=C(N)N)NC(=O)C(CC(C)C)NC(=O)C(CC(C)C)NC(=O)C(Cc1ccc(O)cc1)NC(=O)C(CO)NC(=O)C(Cc1c[nH]c2ccccc12)NC(=O)C(Cc1cnc[nH]1)NC(=O)C1CCC(=O)N1 (stereo not drawn)", "Measured": 102}
{"Molecule": "O=C(CCCn1c2c(sc3ccccc32)c(=O)n2nnc(-c3ccccc3)c12)NCCc1cnc[nH]1", "Measured": 55.2}
{"Molecule": "CC(C)C[C@H](NC(=O)Cn1ccc(NCc2ccccc2)cc1=O)B(O)O", "Measured": 5.45}

List the reported growth of each molecule below.
1. COc1cc(Cn2c(SCCC(=O)Nc3ccc(F)cc3)nc3ccccc3c2=O)cc(OC)c1OC
2. CCC1CCc2nc3sc(C(=O)Nc4cccc(C)c4)c(N)c3cc2C1 (stereo not drawn)
3. O=C(O)c1ccc(-n2c(=O)c3ccccc3c3ccccc3c2=O)cc1
4. CN1CCN(CCCOc2ccc3nc(Nc4ccc(C(F)(F)F)c(Cl)c4)ccc3c2)CC1
5. COc1cc2nc(SCc3cc(OC)c(OC)c(OC)c3)n(Cc3ccccc3)c(=O)c2cc1OC

[56.7, 11, 87.6, -6.45, 6.25]

---

- Test system: NCI-H23 lung
- Assay Name: NCI-60 one-dose screen, 48 h (100 = growth as untreated, 0 = no growth, -100 = all killed)
- Applied Conditions: 10 µM unless noted
About 83,000 compounds went through this panel and 20% of them were active in at least one assay; those are over-represented in the sample as a whole.
One threshold, 60%, splits the recorded growth values: lower ones are true (1), equal or higher ones are false (0).

Solved entries:
{"Compound": "O=S(=O)(NCCCNc1nccc(-c2c(-c3ccccc3)nc3sccn23)n1)c1ccc(F)cc1", "Cat": "true (1)"}
{"Compound": "COc1cc(C2C=C(C)N=C3SC(C)=NN32)cc(OC)c1OC (stereo not given)", "Cat": "false (0)"}
{"Compound": "CN(C)C/C=C/C(=O)Nc1cc2c(Nc3ccc(F)c(Cl)c3F)ncnc2cc1OCCOC(F)F", "Cat": "true (1)"}

Here's an entry: `CCN(CC)S(=O)(=O)c1ccc2[nH]c(=O)cc(C(=O)Nc3ccc(OC)cc3OC)c2c1` . Is its growth below 60%?
false (0)

Here's an entry: `COc1ccc(/C(=N/O)c2cc(F)c(F)c(OC)c2F)cc1O` . Is its growth below 60%?
true (1)

Here's an entry: `c1cc(-c2ccc3c(c2)OCO3)n2nccc2n1` . Is its growth below 60%?
false (0)

Here's an entry: O=c1cc(C2NCCc3c2[nH]c2ccccc32)c2c(ccc3ccccc32)o1 (stereo not given) . Is its growth below 60%?
false (0)

Here's an entry: `Cc1cc(Nc2nc(C(=O)Nc3ccccc3)nc3ccccc23)n[nH]1` . Is its growth below 60%?
false (0)

Here's an entry: `C=C1C(=O)O[C@H]2[C@H]1CC/C(COC(=O)NCc1cc(OC)cc(OC)c1)=C\CC[C@@]1(C)O[C@@H]21` . Is its growth below 60%?
true (1)

---

- Test system: SNB-75 CNS
- Assay Name: NCI-60 one-dose screen, 48 h
- Applied Conditions: 10 µM unless noted
About 83,000 compounds went through this panel and 20% of them were active in at least one assay; those are over-represented in the sample as a whole. Activity calls are given as the source filed them. Rule for the calls: active = growth percent below 10; inactive = the rest.
# output must be one of active, inactive

Solved entries:
{"Molecule": "Nc1c(C(=O)Nc2ccccc2)sc2nc3c(cc12)CCC3", "Cat": "inactive"}
{"Molecule": "NC(=O)c1ccc2c(c1)OCO2", "Cat": "inactive"}
{"Molecule": "COc1ccc2c(c1)C(=O)/C(=C/c1ccc(O)cc1)O2", "Cat": "inactive"}
{"Molecule": "CCN1C(=O)N(CC)C2C1NN=c1s/c(=C3\\C(=O)N(C4CCCC4)c4ccccc43)c(=O)n12 (stereo unspecified)", "Cat": "active"}
{"Molecule": "CCCCCCC[C@@H](O)CC(=O)N[C@H](CCCCN)C(=O)N[C@H](Cc1c[nH]c2ccccc12)C(=O)NC(CCCCN)C(=O)N[C@H](CC(C)C)C(=O)N[C@H](Cc1ccccc1)C(=O)N[C@H](CCCCN)C(=O)N[C@H](CCCCN)C(=O)N[C@H](CC(C)C)C(=O)N1CCCC1C(=O)N[C@H](CCCCN)C(=O)N[C@H](Cc1ccccc1)C(=O)N[C@H](CC(C)C)C(=O)N[C@H](Cc1c[nH]cn1)C(=O)N[C@H](CC(C)C)C(=O)N[C@H](C)C(=O)N[C@H](CCCCN)C(=O)N[C@H](CCCCN)C(=O)N[C@H](Cc1ccccc1)C(=O)O (stereo partly specified)", "Cat": "active"}

Now for a further molecule.
Could you check what this test reported for `CCOC(=O)CC/C(C)=N\Nc1ccc([N+](=O)[O-])cc1` ?
inactive

---

- Tested on: OVCAR-3 ovarian
- Assay Name: NCI-60 one-dose screen, 48 h
- Applied Conditions: 10 µM unless noted
About 83,000 compounds went through this panel and 20% of them were active in at least one assay; those are over-represented in the sample as a whole. The source made the active and inactive calls. Rule for the calls: active = growth percent below 10; inactive = the rest.
# output must be one of active, inactive

{"Compound": "Cc1ccc2c(c1)C(=O)C(c1c(-c3[nH]c(=O)c4ccc(C)cc4c3O)c(O)c3ccccc3c1O)=NC2=O", "Cat": "active"}

Could you check what this test reported for `CC/C=C\C/C=C\C[C@H](O)C/C=C1/C(=O)C=C[C@H]1C/C=C\CCC(=O)OC` ?
active

Could you check what this test reported for COc1ccc(C2CC(c3cccs3)=NN2c2ccc(S(=O)(=O)NC(=O)NCc3cccc(OC)c3)cc2)cc1 (stereo unspecified) ?
inactive

Could you check what this test reported for `COc1ccc(C(=O)c2cc(OC)c(OC)c(OC)c2)cc1/C=C/C(=O)c1ccc2c(c1)OCO2` ?
active

---

- Test system: 786-0 renal
- Assay Name: NCI-60 one-dose screen, 48 h (100 = growth as untreated, 0 = no growth, -100 = all killed)
- Applied Conditions: 10 µM unless noted
This is part of a sample that, as a whole, favours compounds with a hit. Of some 83,000 tested, about 20% had one in any assay.
Assignment: determine reported growth for the given compounds.
Give bare numbers, in %.

Use the examples below as a reference point.
{"Compound": "C=CC(=O)N[C@H](/C=C/C(=O)OCC)Cc1ccc(-c2cc(Cl)cc(Cl)c2)cc1", "Study System": "786-0 renal", "Measurement Label": "growth", "Measured": 96}
{"Compound": "CC/C=C\\C/C=C\\C[C@H]1C/C=C2/C(=O)C=C[C@H]2C/C=C\\CCC(=O)O1", "Study System": "786-0 renal", "Measurement Label": "growth", "Measured": -6.65}
{"Compound": "C/C(=C\\c1csc(C)n1)[C@@H]1C[C@@H]2O[C@]2(C)CCC[C@H](C)[C@H](O)[C@@H](C)C(=O)C(C)(C)[C@@H](O)CC(=O)N1", "Study System": "786-0 renal", "Measurement Label": "growth", "Measured": -22.5}
{"Compound": "O=C1c2ccccc2C(=O)c2c(N=Nc3sc(=O)[nH]c3S)cccc21", "Study System": "786-0 renal", "Measurement Label": "growth", "Measured": 107}
{"Compound": "O=P([O-])(O)OP(=O)([O-])O.[NH-][C@H]1CCCC[C@@H]1[NH-].[OH-].[OH-].[Pt+4]", "Study System": "786-0 renal", "Measurement Label": "growth", "Measured": 107}
{"Compound": "N#Cc1ccc(NC(=O)c2ccc3cccnc3c2O)cc1", "Study System": "786-0 renal", "Measurement Label": "growth", "Measured": 10.2}
{"Compound": "Cc1c(C2=NNC(c3ccc4c(c3)OCO4)C2)[n+]([O-])c2ccccc2[n+]1[O-] (stereo not given)", "Study System": "786-0 renal", "Measurement Label": "growth", "Measured": 106}
{"Compound": "CN(C)c1nc(N)c(N=O)c(N)n1", "Study System": "786-0 renal", "Measurement Label": "growth", "Measured": 106}

List the reported growth of each compound below.
1. COc1ccc(/C=C/c2nc(N3CCOCC3)c3nc(Cl)c(Cl)cc3n2)cc1OC
2. O=C(Nc1ccc(Cl)cc1)c1cc(-c2ccc(F)cc2)c2sc(=O)[nH]c2n1
3. C=C1C(=O)O[C@H]2[C@H]1CC/C(Cn1cc(-c3ccsc3)nn1)=C\CC[C@@]1(C)O[C@@H]21
4. COc1cc(OC)c(C(=O)/C=C/c2cccc(C(F)(F)F)c2)c(OC)c1
5. O=C(O)C(Cc1ccccc1)N1C(=O)/C(=C/C(Cl)=C/c2ccc([N+](=O)[O-])cc2)SC1=S (stereo not given)

1: 99.8; 2: 14.5; 3: -86.7; 4: 13.4; 5: -31.6

List the reported growth of each compound below.
1. CCC(C)NCC(=O)O (stereo not given)
2. Cc1cccc(NC(=O)c2sc3nc4c(cc3c2N)CCCC4)c1

[103, 59.8]

List the reported growth of each compound below.
1. c1ccc2c(c1)Oc1ccccc1C2C1c2ccccc2Oc2ccccc21
2. CCNC(=O)C1CCCN1C(=O)C(CCCN=C(N)N)NC(=O)C(CC(C)C)NC(=O)C(CC(C)C)NC(=O)C(Cc1ccc(O)cc1)NC(=O)C(CO)NC(=O)C(Cc1c[nH]c2ccccc12)NC(=O)C(Cc1cnc[nH]1)NC(=O)C1CCC(=O)N1 (stereo not given)

1. 94.1
2. 104

List the reported growth of each compound below.
1. O=C(C[N+](=O)[O-])c1ccc(Cl)cc1
2. CN(C)c1ccc(-c2ccc(-c3ccc(C(=N)N)cn3)o2)cc1
3. COc1ccc(C2CC(c3cccs3)=NN2c2ccc(S(=O)(=O)NC(=O)Nc3ccc(C)cc3)cc2)cc1 (stereo not given)
4. O=S(=O)(NCCNc1nccc(-c2c(-c3ccccc3)nc3sccn23)n1)c1ccc(O)cc1
5. O=C(CCCn1c(=O)c2sc3ccccc3c2n2nnc(-c3ccccc3)c12)NCCc1cnc[nH]1

[98.5, -66.6, 104, 64.1, -77.7]
